- assayed.system: T1, recombinant human IL-36R extracellular domain expressed with a C-terminal myc-myc-hexahistidine tag (human, UniProt Q9HB29 20-337)
- T1 construct: also called hIL-36R-MMH; hIL-36R.mmH
- T1 sequence (Q9HB29 other isoform, or with tags, fused parts or gaps limits assumed): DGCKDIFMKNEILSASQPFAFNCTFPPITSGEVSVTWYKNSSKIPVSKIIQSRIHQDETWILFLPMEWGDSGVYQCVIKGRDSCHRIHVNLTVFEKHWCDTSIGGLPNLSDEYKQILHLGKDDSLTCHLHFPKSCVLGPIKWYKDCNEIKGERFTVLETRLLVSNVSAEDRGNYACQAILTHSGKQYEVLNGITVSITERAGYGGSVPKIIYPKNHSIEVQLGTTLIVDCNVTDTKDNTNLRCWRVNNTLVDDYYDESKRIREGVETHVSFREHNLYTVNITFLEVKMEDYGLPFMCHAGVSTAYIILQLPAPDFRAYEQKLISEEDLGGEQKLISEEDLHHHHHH
- protocol.notes: SPR (Biacore 4000), mAb captured on anti-human Fc, 37°C
- Protocol: Equilibrium dissociation constants (KD values) for IL-36R binding to purified anti-IL-36R antibodies were determined using a real-time surface plasmon resonance biosensor using a Biacore 4000 instrument. […] Kinetic association rate constant (kₐ) and dissociation rate constant (kd) were determined by fitting the real-time sensorgrams to a 1:1 binding model using Scrubber 2.0c curve fitting software. […]
assay.endpoint: koff (s⁻¹)

binder: H4H14728P (antibody, human IgG4 S228P, kappa, V domains shown) VH: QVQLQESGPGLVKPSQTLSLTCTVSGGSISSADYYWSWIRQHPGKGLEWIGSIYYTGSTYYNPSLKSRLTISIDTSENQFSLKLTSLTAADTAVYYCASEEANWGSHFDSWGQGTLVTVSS VL: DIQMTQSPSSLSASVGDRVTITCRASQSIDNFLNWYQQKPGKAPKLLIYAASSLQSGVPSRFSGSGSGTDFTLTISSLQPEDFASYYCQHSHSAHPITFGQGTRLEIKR
assay.endpoint: koff
result.number: 0.00293
//
binder: H4H14699P2 (antibody, human IgG4 S228P, kappa, V domains shown, Fully human anti-IL-36R antibody) VH: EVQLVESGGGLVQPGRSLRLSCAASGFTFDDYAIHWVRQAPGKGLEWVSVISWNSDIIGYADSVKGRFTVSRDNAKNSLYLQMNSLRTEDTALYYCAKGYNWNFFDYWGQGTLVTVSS VL: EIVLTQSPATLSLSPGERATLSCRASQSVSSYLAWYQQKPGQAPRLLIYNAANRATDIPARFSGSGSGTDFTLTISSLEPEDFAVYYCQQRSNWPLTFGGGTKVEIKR
assay.endpoint: koff
result.number: 0.00418
//
binder: H4H14708P2 (antibody, human IgG4 S228P, kappa, V domains shown) VH: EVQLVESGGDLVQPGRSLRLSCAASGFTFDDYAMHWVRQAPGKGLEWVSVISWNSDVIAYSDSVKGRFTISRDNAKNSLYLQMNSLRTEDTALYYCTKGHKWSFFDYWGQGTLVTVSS VL: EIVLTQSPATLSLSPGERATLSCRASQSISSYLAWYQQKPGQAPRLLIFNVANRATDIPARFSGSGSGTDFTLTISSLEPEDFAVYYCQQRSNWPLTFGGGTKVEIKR
assay.endpoint: koff
result.number: 0.00186
